src = ChEMBL document CHEMBL1201862

System: SW-620
test-protocol: NCI tumour cell line growth inhibition, 48 h
Active and inactive are the calls of the source. Rule as the data show it: active = GI50 up to about 1.1 µM and inactive = higher.
Parameter: GI50. Scope: all listed entries.

(Q) Entry C/C(=N\NC(=O)C[N+](C)(C)C)c1sc(-c2cccnc2)nc1C : reported GI50 = ?
(A) > 100 µM (inactive)

---

Tested on: SK-MEL-2
test-protocol: NCI tumour cell line growth inhibition, 48 h
Active and inactive are the calls of the source. Cut-off read from the data, not from the text of the source: active = GI50 up to about 1.1 µM and inactive = higher.
value-type: GI50

Worked set:
1) COc1ccc(OC)c2sc(N3C(=O)/C(=C/Cc4ccco4)N=C3c3ccccc3)nc12    24.1 µM (inactive)
2) C=CC(=O)N1C/C(=C\c2ccc(Cl)c(Cl)c2)C(=O)/C(=C/c2ccc(Cl)c(Cl)c2)C1    0.42 µM (active)
3) COc1ccc(/C=C\c2cc(OC)c(OC)c(OC)c2)c(O)c1O    0.0451 µM (active)
4) Cc1cc(C)c2c(=O)n(CC(O)CN3CCN(c4ncccn4)CC3)sc2n1 (centres undefined)    18.7 µM (inactive)

(Q) # GI50 lookup, item CN/N=C(\C(=O)Nc1ccc([N+](=O)[O-])cc1[N+](=O)[O-])C1NC(=O)NC1=O (centres undefined)
(A) > 100 µM (inactive)

(Q) Item under review: CC1OC(OC2C[C@](O)(C(=O)CF)Cc3c(O)c4c(c(O)c32)C(=O)c2ccccc2C4=O)CC(N)C1O (some centres undefined) . Reported GI50?
(A) 0.168 µM (active)

(Q) Reported GI50 for Cn1cc2ccccc2c1-c1nc(F)nc(Nc2ccc(N)cc2)n1 : what is it?
(A) 13.3 µM (inactive)

(Q) # input molecule: COc1cc(/C=C2/C[C@H]3[C@@H]4CCC5=CC(=O)CC[C@]5(C)[C@H]4CC[C@]3(C)NC2=O)cc(OC)c1OC ; wanted: its GI50
(A) 24.8 µM (inactive)

(Q) Quick one: GI50 for [N-]=[N+]=NI1OC(C(F)(F)F)(C(F)(F)F)c2ccccc21 ?
(A) 16 µM (inactive)
